target: Cytochrome P450 1A2 (Homo sapiens) (UniProt P05177); experiment: Cytochrome P450 Family 1 Subfamily A Member 2 (CYP1A2) small molecule antagonists: luciferase reporter qHTS assay (AID 1671199); settings: P450-Glo CYP1A2 enzyme, luciferin luminescence, 1 h; series mostly up to 115 µM; note: nearly all actives have a fitted effect of over 50% in size; note: potency is the fitted concentration of half-maximal effect
Sequence (P05177 whole entry, looked up): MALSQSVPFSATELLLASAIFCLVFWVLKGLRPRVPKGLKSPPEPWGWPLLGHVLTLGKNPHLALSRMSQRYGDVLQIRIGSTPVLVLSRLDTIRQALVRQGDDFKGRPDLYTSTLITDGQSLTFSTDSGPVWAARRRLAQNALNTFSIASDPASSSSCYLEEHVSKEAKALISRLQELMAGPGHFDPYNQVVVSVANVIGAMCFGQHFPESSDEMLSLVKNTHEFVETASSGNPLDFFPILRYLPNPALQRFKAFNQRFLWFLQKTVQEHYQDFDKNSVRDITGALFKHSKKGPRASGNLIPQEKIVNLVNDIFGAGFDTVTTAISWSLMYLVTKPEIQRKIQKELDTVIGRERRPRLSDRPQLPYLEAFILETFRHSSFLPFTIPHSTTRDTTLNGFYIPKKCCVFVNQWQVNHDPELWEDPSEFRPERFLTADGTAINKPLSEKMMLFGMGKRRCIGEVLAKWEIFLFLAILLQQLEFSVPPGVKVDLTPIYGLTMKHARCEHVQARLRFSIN
Inconclusive results are not listed. Active and inactive are the calls of the source. Calls come from the whole dose curve; as a rule, active = well fitted inhibition curve with a large enough effect in the repeat runs; inconclusive = weak or mixed curves; inactive = no such curve, though single readings can be large or run the other way.
Readout Label: Potency

Check out these entries, answers already filled in.
Cc1c(C(=O)c2c[nH]n(C)c2=O)ccc(S(C)(=O)=O)c1C1=NOCC1    14.5 µM (active)
CC(=O)OC(C)=O    inactive
CCCCCc1cccc(=O)o1    35.6 µM (active)
CC(Oc1cc(Cl)ccc1Cl)C(=O)O (centres undefined)    inactive
O=[N+]([O-])c1c(Cl)cc(Cl)cc1Cl    39.5 µM (active)

-- ask Recorded Potency for Cc1c(N)cccc1Cl , please?
-- reply 11.3 µM (active)

-- ask Record request: Potency value, item CCC(=O)Oc1ccc2c(c1)CC[C@@H]1[C@@H]2CC[C@@]2(C)[C@H]1C[C@@H](OC(=O)CC)[C@@H]2OC(=O)CC
-- reply inactive

-- ask GET /values?readout=Potency&item= O=C[O][Al]([O]C=O)[O]C=O
-- reply inactive

-- ask # lookup: Potency of CC1(C)O[C@H]2CC(=O)OC[C@]23[C@H]2CC[C@@]4(C)[C@H](c5ccoc5)OC(=O)[C@H]5O[C@]54[C@]2(C)C(=O)C[C@@H]13
-- reply inactive

-- ask What measured Potency goes with O=C(O)CSCC(=O)NC1CCSC1=O (centres undefined) ?
-- reply inactive

----------
test: qHTS assay to identify small molecule agonists of the farnesoid-X-receptor (FXR) signaling pathway - cell viability counter screen (AID 743218); settings: FXR-bla HEK293T viability, CellTiter-Glo luminescence, 16 h; series mostly up to 62.6 µM; note: % is set by controls: 0 for no effect and ±100 for the full control effect; nearly all actives have a fitted effect of over 45% in size
Inconclusive results are not listed. Active and inactive are the calls of the source. The call rests on the fitted dose curve; in most records, active means well fitted cell-killing curve with a large enough effect in the repeat runs; inconclusive means weak or mixed curves, or effect the other way; inactive means no such curve, though single readings can be large or run the other way.
Readout Label: viability change, negative = cytotoxic

NCc1ccc(S(N)(=O)=O)cc1    inactive
OC1(c2ccc(Cl)cc2)CCNCC1    inactive
N[C@@H](Cc1ccc(O)cc1)C(=O)O    -2.1% [at 13.2 µM] (inactive)
CCC/C=C(\C=O)CC    inactive
CCCC(=O)Nc1ccc(OCC(O)CNC(C)C)c(C(C)=O)c1 (stereo not drawn)    inactive

-- ask Data request, read-out viability change, negative = cytotoxic, for Cc1ncc([N+](=O)[O-])n1CC(C)O (stereo not drawn)
-- reply inactive

-- ask Given the entry O=C(O)[C@H](O)c1ccccc1 , report its measured viability change, negative = cytotoxic.
-- reply inactive

-- ask Requested field: viability change, negative = cytotoxic. Item: O=C(Cl)c1ccccc1[N+](=O)[O-]
-- reply inactive

-- ask Given C=CCN1C[C@H](C(=O)N(CCCN(C)C)C(=O)NCC)C[C@@H]2c3cccc4[nH]cc(c34)C[C@H]21 , state its recorded viability change, negative = cytotoxic.
-- reply inactive

-- ask viability change, negative = cytotoxic for CC(C)[C@H]1CC[C@H](C)C[C@@H]1O ?
-- reply inactive

-- ask What viability change, negative = cytotoxic value was documented for this molecule, COC(=O)CCCCC(CCSS/C(CCO)=C(\C)N(C=O)Cc1cnc(C)nc1N)SC(C)=O (stereo not drawn) ?
-- reply inactive

-- ask Need viability change, negative = cytotoxic, item CCC(C(=O)OCCN1CCOC(c2ccccc2)C1C)c1ccccc1 (stereo not drawn)
-- reply inactive

-- ask # get_value(readout='viability change, negative = cytotoxic', item= Nc1nnnn1-c1ccccc1 )
-- reply inactive

Reference source for all entries: PubChem BioAssay (Tox21)
